As an illustration, consider measured GI50 for compounds on HCT-15.
Give just the numeric value; µM need not be written.

Reference set, count: 8
1. CC[C@@]1(O)C(=O)OCc2c1cc1n(c2=O)Cc2cc3cc4c(cc3nc2-1)OCO4 = 0.0181
2. O=C(O)c1ccccc1/C=C1\Cc2ccc3c(c2C1=O)CCCC3 = 37.1
3. CC1(C=O)CC(CCc2ccccc2)NC1Cc1ccc(O)cc1 (configuration not stated) = 21.3
4. CC(C)c1cccc(C(C)C)c1OS(=O)(=O)NC(=O)OC(C(F)(F)F)C(F)(F)F = 34.1
5. C/C(=N\NC(N)=O)c1sc(-c2nc(C)c(/C(C)=N/NC(N)=O)s2)nc1C = 21.9
6. Cc1ccc(C2SCC(=O)N2c2ccc(-c3ccc(-n4c(-c5ccccc5)nc5ccccc5c4=O)cc3)cc2)cc1 (configuration not stated) = 62.5
7. CCCCCCCCCCCCCCCCCCNc1ccn(C2OC(COP(=O)(O)OCC3OC(n4cc(C)c(=O)[nH]c4=O)CC3N=[N+]=[N-])C(O)C2O)c(=O)n1 (configuration not stated) = 18.8
8. NCCN(CCN(C(=O)Nc1ccccc1)c1ccccc1)C(=O)Nc1ccccc1 = 24.5

Continue with the next compound.
Quick check: GI50 on HCT-15, item COc1cc(C(C)(C)C)c(OC(=O)/C=C/C(=O)O/C=C/[N+](=O)[O-])c(C(C)(C)C)c1 ?
17.8
